Provide the reported MIC of each item.
# Species: Oryctolagus cuniculus
# Method description: Minimum inhibitory concentration required to reduce virus induced cytopathogenicity in primary rabbit kidney cell cultures by 50% against HSV-1 ((KOS)
# Format: functional
Remember to follow the number with its unit.

Example entries and their recorded answers appear below.
[
  {
    "Compound": "Cl.NCC(=O)OCCOCn1cnc2c(O)nc(N)nc21",
    "MIC": "0.1 µg/mL"
  },
  {
    "Compound": "Nc1nc(O)c2ncn(COCCOC(=O)CCC(=O)[O-])c2n1.[Na+]",
    "MIC": "0.7 µg/mL"
  },
  {
    "Compound": "O=c1[nH]c(=O)n([C@H]2C[C@H](O)[C@@H](CO)O2)cc1/C=C/Br",
    "MIC": "0.01 µg/mL"
  },
  {
    "Compound": "Nc1nc2c(ncn2COCCO)c(=O)[nH]1",
    "MIC": "0.08 µg/mL"
  },
  {
    "Compound": "CC(N)C(=O)OCCOCn1cnc2c(O)nc(N)nc21.Cl (stereo not drawn)",
    "MIC": "0.4 µg/mL"
  }
]

Take each entry in turn and give its MIC.
1. O=c1[nH]c(=O)n([C@H]2C[C@H](O)[C@@H](CO)O2)cc1I
2. [N-]=[N+]=NCC(=O)OCCOCn1cnc2c(O)nc(N)nc21
3. Cl.NCCC(=O)OCCOCn1cnc2c(O)nc(N)nc21

0.15 µg/mL
0.1 µg/mL
0.2 µg/mL
